Items are presented alongside their recorded pIC50.
- target.or.test.system: human PCSK9 / human LDLR EGFa domain interaction (Homo sapiens (Human))
- Sequence (Q8NBP7 31-152 partner, one chain of several): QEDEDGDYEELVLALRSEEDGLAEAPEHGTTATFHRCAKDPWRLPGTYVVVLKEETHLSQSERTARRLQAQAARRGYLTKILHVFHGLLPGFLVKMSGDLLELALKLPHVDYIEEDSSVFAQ
- assay.explanation: TR-FRET assay of inhibition of the PCSK9-LDLR protein-protein interaction
- Type: binding
- reported.conditions: TR-FRET, 20 nM human PCSK9, 20 nM human LDLR EGFa domain, 2 hours room temperature; read-out: IC50
pIC50: −log10 of the molar value. Starred links: 1 amine or outer side, 2 acyl side, 3 side chain; linkers in the order of their positions; H or OH if unused. Positions of bridges follow the written chain, without caps; N, C: chain ends. Non-standard residues stand in square brackets, D forms with d. Residues, ends and D or L forms follow the SMILES beside them. Trp(5-F) = N[C@@H](Cc1c[nH]c2ccc(F)cc12)C(=O)O; Phe(4-CH2NH2) = NCc1ccc(C[C@H](N)C(=O)O)cc1; Nle(6-COOH) = N[C@@H](CCCCC(=O)O)C(=O)O; X4 = O=C(CCSCc1cccc(CSCCN[*:1])c1)[*:2]; mXylylene = c1cc(C[*:1])cc(C[*:2])c1; d(aThr) = C[C@@H](O)[C@@H](N)C(=O)O; hPhe = N[C@@H](CCc1ccccc1)C(=O)O; X8 = Clc1cc(C[*:1])cc(C[*:2])c1; αMeP = C[C@@]1(C(=O)O)CCCN1; Mpa = O=C(O)CCS

Reference set, count: 2
COc1ccc(C[C@@H]2NC(=O)[C@@H]([C@@H](C)O)NC(=O)[C@H](CCCCC(=O)O)NC(=O)[C@H](Cc3c[nH]c4ccc(F)cc34)NC(=O)[C@H](Cc3ccc(CN)cc3)NC(=O)[C@@H](C)NC(=O)[C@H](C)NC(=O)CCSCc3cccc(c3)CSCCNC(=O)[C@]3(C)CCCN3C2=O)cc1 [Compound 385] (cyclo(A[dA][Phe(4-CH2NH2)][Trp(5-F)][Nle(6-COOH)][d(aThr)]Y(Me)[αMeP][X4]))    7.00 to 10.00
COc1ccc(C[C@@H]2NC(=O)[C@H]([C@@H](C)O)NC(=O)[C@@H]3CCCN3C(=O)[C@H](Cc3c[nH]c4ccc(F)cc34)NC(=O)[C@H](Cc3c[nH]c4ccc(F)cc34)NC(=O)[C@@H](C)NC(=O)[C@H](CCCCN)NC(=O)CCSCc3cc(Cl)cc(c3)CSC[C@@H](C(N)=O)NC(=O)[C@]3(C)CCCN3C2=O)cc1 [Compound 064] ([Mpa]K[dA][Trp(5-F)][Trp(5-F)]PTY(Me)[αMeP]C-NH2; linker 1-10 via X8)    4.92 to 6.00

Shift focus to the following entry.
Which pIC50 is reported with human PCSK9 / human LDLR EGFa domain interaction (Homo sapiens (Human)) for this entry: NCCCC[C@@H]1NC(=O)CCSCc2cccc(c2)CSC[C@@H](C(N)=O)NC(=O)[C@@H]2CCCN2C(=O)[C@H](Cc2ccc(O)cc2)NC(=O)[C@H](Cc2c[nH]cn2)NC(=O)[C@H](CC(=O)O)NC(=O)[C@H](Cc2c[nH]c3ccc(F)cc23)NC(=O)[C@H](CCc2ccccc2)NC(=O)CNC1=O [Compound 211] ([Mpa]KG[hPhe][Trp(5-F)]DHYPC-NH2; linker 1-10 via mXylylene) ?
4.92 to 6.00

----------
- target.or.test.system: PCSK9 (Homo sapiens (Human), UniProt Q8NBP7)
- Sequence (Q8NBP7 153-692): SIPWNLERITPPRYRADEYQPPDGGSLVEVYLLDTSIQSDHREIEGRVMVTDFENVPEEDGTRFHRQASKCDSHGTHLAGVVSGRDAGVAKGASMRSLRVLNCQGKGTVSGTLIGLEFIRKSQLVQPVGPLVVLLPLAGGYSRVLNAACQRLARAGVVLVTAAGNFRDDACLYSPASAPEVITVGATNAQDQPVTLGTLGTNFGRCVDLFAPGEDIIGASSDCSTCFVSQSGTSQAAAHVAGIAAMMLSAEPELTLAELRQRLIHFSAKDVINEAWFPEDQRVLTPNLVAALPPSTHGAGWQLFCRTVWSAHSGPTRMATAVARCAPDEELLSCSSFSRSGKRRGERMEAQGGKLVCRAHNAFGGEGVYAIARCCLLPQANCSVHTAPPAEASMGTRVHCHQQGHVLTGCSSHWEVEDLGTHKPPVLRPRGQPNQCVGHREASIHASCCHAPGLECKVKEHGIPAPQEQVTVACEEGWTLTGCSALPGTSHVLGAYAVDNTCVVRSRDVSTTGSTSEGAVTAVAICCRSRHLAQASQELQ
- assay.explanation: PCSK9 Alexa FRET Standard assay (displacement of AlexaFluor647 tagged cyclic peptide Reagent A)
- Type: binding
- reported.conditions: PCSK9 Alexa FRET Standard assay, 0.5 nM PCSK9, 20 nM AF cyclic peptide Reagent A; read-out: IC50
pIC50: −log10 of the molar value. Starred links: 1 amine or outer side, 2 acyl side, 3 side chain; linkers in the order of their positions; H or OH if unused. Positions of bridges follow the written chain, without caps; N, C: chain ends. Non-standard residues stand in square brackets, D forms with d. Residues, ends and D or L forms follow the SMILES beside them. Triazole bridges read from a SMILES are 1,4-linked. 2Furoyl(5-aminomethyl) = O=C(c1ccc(CN[*:1])o1)[*:2]; NHCH2(1,3-C6H4)CH2CO = O=C(Cc1cccc(CN[*:1])c1)[*:2]; NHCH2C6H4(p)CH2CH2NH = c1cc(CN[*:1])ccc1CCN[*:2]; Phe(4-COOH) = N[C@@H](Cc1ccc(C(=O)O)cc1)C(=O)O; Trp(5-F) = N[C@@H](Cc1c[nH]c2ccc(F)cc12)C(=O)O; mXylylene(5-F) = Fc1cc(C[*:1])cc(C[*:2])c1; Pro(cis-4-F) = O=C(O)[C@@H]1C[C@H](F)CN1; X4 = O=C(CCSCc1cccc(CSCCN[*:1])c1)[*:2]; Orn(N3) = [N-]=[N+]=NCCC[C@H](N)C(=O)O; γGlu = O=C(O)[C@H](CCC(=O)[*:2])N[*:1]; dGly(cPent) = N[C@@H](C(=O)O)C1CCCC1; mXylylene = c1cc(C[*:1])cc(C[*:2])c1; NMeY = CN[C@@H](Cc1ccc(O)cc1)C(=O)O; Aad = N[C@@H](CCCC(=O)O)C(=O)O; NMeL = CN[C@@H](CC(C)C)C(=O)O; hLys = NCCCCC[C@H](N)C(=O)O; αMeP = C[C@@]1(C(=O)O)CCCN1; dPra = C#CC[C@@H](N)C(=O)O; Mpa = O=C(O)CCS
measured.parameter: pIC50

For orientation, consider the following solved cases.
COc1ccc(C[C@@H]2NC(=O)[C@H](Cc3c[nH]cn3)NC(=O)[C@H](CC(=O)O)NC(=O)[C@H](Cc3c[nH]c4ccc(F)cc34)NC(=O)[C@H](Cc3c[nH]c4ccc(F)cc34)NC(=O)[C@@H](C3CCCC3)NC(=O)[C@H](CCCCN)NC(=O)CCSCc3cccc(c3)CSCCNC(=O)[C@]3(C)CCCN3C2=O)cc1 [Compound 344] (cyclo(DHY(Me)[αMeP][X4]K[dGly(cPent)][Trp(5-F)][Trp(5-F)]))    4.30 to 4.68
CC(=O)N[C@@H]1Cc2cn(nn2)CCC[C@@H](C(N)=O)NC(=O)[C@]2(C)CCCN2C(=O)[C@H](Cc2ccc(O)cc2)NC(=O)[C@H](Cc2cnc[nH]2)NC(=O)[C@H](CC(=O)O)NC(=O)[C@H](Cc2c[nH]c3ccc(F)cc23)NC(=O)[C@H](Cc2c[nH]c3ccc(F)cc23)NC(=O)CNC1=O [Compound 335] (Ac-[dPra]G[Trp(5-F)][Trp(5-F)]DHY[αMeP][Orn(N3)]-NH2; triazole 1-9)    4.92 to 6.00
C[C@@]12CCCN1C(=O)[C@H](Cc1ccc(O)cc1)NC(=O)[C@H](Cc1cnc[nH]1)NC(=O)[C@H](CC(=O)O)NC(=O)[C@H](Cc1c[nH]c3ccc(F)cc13)NC(=O)[C@H](Cc1c[nH]c3ccc(F)cc13)NC(=O)C1=CC=C(CNC(=O)CCSCc3cccc(c3)CSC[C@@H](C(N)=O)NC2=O)O1 [Compound 428] ([Mpa][2Furoyl(5-aminomethyl)][Trp(5-F)][Trp(5-F)]DHY[αMeP]C-NH2; linker 1-9 via mXylylene)    4.30 to 4.68
CCCc1cccc(C[C@@H]2NC(=O)[C@@H](C)NC(=O)[C@H](C)NC(=O)CCSCc3cccc(c3)CSCCNC(=O)[C@]3(C)CCCN3C(=O)[C@H](Cc3ccc(OC)cc3)NC[C@H]([C@@H](C)OC)NC(=O)[C@@H]3[C@@H](O)CCN3C(=O)[C@H](Cc3c[nH]c4ccc(F)cc34)NC2=O)c1    4.30 to 4.68
COc1ccc(C[C@@H]2NC(=O)[C@H](Cc3cnc[nH]3)NC(=O)[C@H](CC(=O)O)NC(=O)[C@H](Cc3c[nH]c4ccc(F)cc34)NC(=O)[C@H](Cc3c[nH]c4ccc(F)cc34)NC(=O)[C@@H](C)NC(=O)[C@H](NC(C)=O)CCCCNC(=O)Cc3cccc(c3)CNC(=O)CC[C@@H](C(=O)O)NC(=O)[C@]3(C)CCCN3C2=O)cc1 [Compound 396] (Ac-[dK][dA][Trp(5-F)][Trp(5-F)]DHY(Me)[αMeP][γGlu][NHCH2(1,3-C6H4)CH2CO]; lactam 1-C)    7.00 to 9.96

State the recorded pIC50 for this entry: COc1ccc(C[C@@H]2NC(=O)CCSCc3cccc(c3)CSC[C@@H](C(N)=O)NC(=O)[C@]3(C)CCCN3C(=O)[C@H](Cc3ccc(OC)cc3)NC(=O)[C@H]([C@@H](C)OC)NC(=O)[C@H](CC(C)C)N(C)C(=O)[C@H](Cc3ccc(OC)cc3)NC(=O)[C@H](Cc3ccc(OC)cc3)N(C)C(=O)[C@@H](CC(C)C)NC2=O)cc1 [Compound 036] ([Mpa]Y(Me)[dL][NMeY](Me)Y(Me)[NMeL]T(Me)Y(Me)[αMeP]C-NH2; linker 1-10 via mXylylene)
7.00 to 9.96

Quick one: pIC50 of COc1ccc(C[C@@H]2NC(=O)[C@H](Cc3ccc(OC)cc3)NC(=O)[C@@H](CC(C)C)NC(=O)[C@H]([C@@H](C)OC)NC(=O)CCSCc3cccc(c3)CSC[C@@H](C(N)=O)NC(=O)[C@@H]3CCCN3C(=O)[C@H](Cc3ccc(OC)cc3)NC(=O)[C@H](Cc3ccc(OC)cc3)NC(=O)[C@H](CC(C)C)NC2=O)cc1 [Compound 034] ([Mpa]T(Me)[dL]Y(Me)Y(Me)LY(Me)Y(Me)PC-NH2; linker 1-10 via mXylylene) ?
7.00 to 9.96

Would you mind telling me what pIC50 value was observed for COc1ccc(C[C@@H]2NC(=O)[C@H](Cc3cnc[nH]3)NC(=O)[C@H](CC(=O)O)NC(=O)[C@H](Cc3c[nH]c4ccc(F)cc34)NC(=O)[C@H](Cc3c[nH]c4ccc(F)cc34)NC(=O)[C@@H](C)NC(=O)[C@H](CCCCN)NC(=O)CCSCc3cc(F)cc(c3)CSC[C@@H](C(N)=O)NC(=O)[C@]3(C)CCCN3C2=O)cc1 [Compound 338] ([Mpa]K[dA][Trp(5-F)][Trp(5-F)]DHY(Me)[αMeP]C-NH2; linker 1-10 via mXylylene(5-F)) ?
4.92 to 6.00

If you can, please state the reported pIC50 value of COc1ccc(C[C@@H]2NC(=O)[C@H]([C@@H](C)O)NC(=O)[C@@H]3C[C@H](F)CN3C(=O)[C@H](Cc3c[nH]c4ccc(F)cc34)NC(=O)[C@H](Cc3c[nH]c4ccc(F)cc34)NC(=O)[C@@H](C)NC(=O)[C@H](CCCCN)NC(=O)[C@@H](NC(C)=O)CCCC(=O)NCc3ccc(cc3)CCNC(=O)[C@]3(C)CCCN3C2=O)cc1 [Compound 096] (Ac-[Aad]K[dA][Trp(5-F)][Trp(5-F)][Pro(cis-4-F)]TY(Me)[αMeP]; linker 1-C via NHCH2C6H4(p)CH2CH2NH) .
6.00 to 7.00

// pIC50 lookup, key: COc1ccc(C[C@@H]2NC(=O)[C@H](Cc3cnc[nH]3)NC(=O)[C@H](CC(=O)O)NC(=O)[C@H](Cc3c[nH]c4ccc(F)cc34)NC(=O)[C@H](Cc3c[nH]c4ccc(F)cc34)NC(=O)[C@@H](C)NC(=O)[C@H](CCCCN)NC(=O)[C@@H](NC(C)=O)CCCCCNC(=O)c3ccc(cc3)C[C@@H](C(N)=O)NC(=O)[C@]3(C)CCCN3C2=O)cc1 [Compound 393] (Ac-[hLys]K[dA][Trp(5-F)][Trp(5-F)]DHY(Me)[αMeP][Phe(4-COOH)]-NH2; lactam 1-10)
6.00 to 7.00

Where do the numbers come from? From patent US11530244B2.
